Measured values drawn from ChEMBL document CHEMBL1949568 for this set.

Each record here notes measured AUC.
protocol description: AUC in rat at 30 umol/kg, po
Assay type: ADME, organism-based
settings: plasma
Please reply with the bare figure in ng·h/mL and do not write the unit itself.

[
  {
    "query smiles": "O=C(CN1CCCC(c2ccccc2)(c2ccccc2)C1=O)N1CCC(c2ccccc2)(c2ccccc2)CC1",
    "AUC, ng·h/mL": 2990
  }
]

So what's the measured AUC for this one? O=C(CN1CCCC(c2ccccc2)(c2ccccc2)C1=O)N1CCN(Cc2cccc(C(F)(F)F)c2)CC1 1000

====

protocol description: Metabolic stability in human liver microsomes assessed as compound remaining after 30 mins
Format: ADME, Microsome
settings: read-out: Stability
Each record here notes measured remaining at 0.5 h.

So what's the measured remaining at 0.5 h for this one? O=C(CN1CCCC(c2ccccc2)(c2ccccc2)C1=O)N1CCN(C(c2ccccc2)c2ccccc2)CC1 0.1%

What do we get for O=C(CN1CCC(c2ccc(F)cc2)(c2ccc(F)cc2)C1=O)N1CCN(C(c2ccccc2)c2ccccc2)CC1 ? 2.5%

What do we get for O=C(CN1CCC(c2ccccc2)(c2ccccc2)C1=O)N1CCN(Cc2cccc(C(F)(F)F)c2)CC1 ? 0.3%

What do we get for O=C(CN1CCCC(c2ccccc2)(c2ccccc2)C1=O)N1CCC(NC(c2ccccc2)c2ccccc2)CC1 ? < 0.1%

What do we get for O=C(CN1CCCC(c2ccccc2)(c2ccccc2)C1=O)N1CCN(Cc2cccc(C(F)(F)F)c2)CC1 ? 0.1%

====

protocol description: AUC in rat at 3 umol/kg, po
Type: ADME, organism-based
settings: plasma
test readout: AUC (ng·h/mL)
Please reply with the bare figure in ng·h/mL and do not write the unit itself.

The cases that follow already have their AUC on record.
[
  {
    "query smiles": "O=C(CN1CCC(c2ccc(F)cc2)(c2ccc(F)cc2)C1=O)N1CCN(C(c2ccccc2)c2ccccc2)CC1",
    "recorded value": 160
  },
  {
    "query smiles": "O=C(CN1CCCC(c2ccccc2)(c2ccccc2)C1=O)N1CCN(C(c2ccccc2)c2ccccc2)CC1",
    "recorded value": 186
  }
]

Below: the item to evaluate.
So what's the measured AUC for this one? O=C(CN1CCC(c2ccccc2)(c2ccccc2)C1=O)N1CCN(C(c2ccccc2)c2ccccc2)CC1 159

====

protocol description: Plasma clearance in rat at 5 umol/kg, iv and 30 umol/kg, po
Assay type: ADME, organism-based
Each record here notes measured clearance.
Please reply with the bare figure in L/h/kg and do not write the unit itself.

[
  {
    "query smiles": "O=C(CN1CCCC(c2ccccc2)(c2ccccc2)C1=O)N1CCC(c2ccccc2)(c2ccccc2)CC1",
    "output unit": "L/h/kg",
    "clearance": 2.7
  }
]

Below: the item to evaluate.
So what's the measured clearance for this one? O=C(CN1CCCC(c2ccccc2)(c2ccccc2)C1=O)N1CCN(Cc2cccc(C(F)(F)F)c2)CC1 2.5
